Measured Kd by item
# System name: UniProt Q9UM73
# Sequence (Q9UM73 whole entry, the tested form may be a part): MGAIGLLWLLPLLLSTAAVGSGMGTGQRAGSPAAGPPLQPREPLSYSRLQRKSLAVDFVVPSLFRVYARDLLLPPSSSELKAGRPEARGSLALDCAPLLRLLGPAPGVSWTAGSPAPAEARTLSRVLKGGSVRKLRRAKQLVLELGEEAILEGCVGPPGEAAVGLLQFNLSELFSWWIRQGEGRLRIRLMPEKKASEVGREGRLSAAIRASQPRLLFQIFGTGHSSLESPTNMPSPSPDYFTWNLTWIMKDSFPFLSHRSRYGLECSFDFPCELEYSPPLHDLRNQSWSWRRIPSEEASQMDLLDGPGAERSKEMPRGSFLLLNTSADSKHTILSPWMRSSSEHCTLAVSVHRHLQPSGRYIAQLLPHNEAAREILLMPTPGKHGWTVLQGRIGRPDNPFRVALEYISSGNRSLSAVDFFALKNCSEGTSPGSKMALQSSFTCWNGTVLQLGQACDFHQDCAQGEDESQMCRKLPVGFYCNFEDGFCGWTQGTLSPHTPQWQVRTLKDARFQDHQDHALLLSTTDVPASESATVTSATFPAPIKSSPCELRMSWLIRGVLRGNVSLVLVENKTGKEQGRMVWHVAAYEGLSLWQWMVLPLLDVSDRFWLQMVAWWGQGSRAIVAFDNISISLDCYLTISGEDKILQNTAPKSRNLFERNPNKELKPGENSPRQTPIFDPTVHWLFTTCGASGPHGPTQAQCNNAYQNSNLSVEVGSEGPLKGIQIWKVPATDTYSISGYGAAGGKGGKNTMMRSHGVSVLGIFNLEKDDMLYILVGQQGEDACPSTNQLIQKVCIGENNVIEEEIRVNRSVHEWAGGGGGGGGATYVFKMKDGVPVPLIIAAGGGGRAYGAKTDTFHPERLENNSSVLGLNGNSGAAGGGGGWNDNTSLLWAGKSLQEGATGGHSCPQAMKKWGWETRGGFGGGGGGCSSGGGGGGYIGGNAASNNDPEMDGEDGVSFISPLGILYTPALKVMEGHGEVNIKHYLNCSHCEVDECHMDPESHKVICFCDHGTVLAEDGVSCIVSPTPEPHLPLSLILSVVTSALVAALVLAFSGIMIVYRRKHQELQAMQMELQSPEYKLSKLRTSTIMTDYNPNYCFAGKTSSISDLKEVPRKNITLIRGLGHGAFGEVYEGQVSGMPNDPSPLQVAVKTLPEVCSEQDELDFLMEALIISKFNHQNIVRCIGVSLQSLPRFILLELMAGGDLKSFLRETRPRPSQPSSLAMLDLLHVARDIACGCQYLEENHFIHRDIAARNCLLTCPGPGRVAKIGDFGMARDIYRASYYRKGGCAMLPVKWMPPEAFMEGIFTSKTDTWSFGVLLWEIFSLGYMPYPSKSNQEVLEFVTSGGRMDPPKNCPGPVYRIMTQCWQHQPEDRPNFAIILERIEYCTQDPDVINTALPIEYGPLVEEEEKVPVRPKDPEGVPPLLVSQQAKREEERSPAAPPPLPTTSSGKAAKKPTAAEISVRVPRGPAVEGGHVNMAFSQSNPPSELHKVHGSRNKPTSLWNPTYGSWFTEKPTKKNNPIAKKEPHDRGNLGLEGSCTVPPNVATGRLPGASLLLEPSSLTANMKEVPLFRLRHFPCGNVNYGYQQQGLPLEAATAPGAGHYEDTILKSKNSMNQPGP
# Assay summary: Binding affinity to recombinant human […] N-terminal GST-tagged ALK (1058 to 1620 residues) expressed in baculovirus expression system using Srctide as substrate incubated for 1 hr by TR-FRET assay
Reported metric: Kd (nM)

* CO[C@@H]1[C@H](N(C)CCOCCOCCOCCNC(=O)CCC2=[N+]3C(=Cc4c(C)cc(C)n4[B-]3(F)F)C=C2)C[C@H]2O[C@]1(C)n1c3ccccc3c3c4c(c5c6ccccc6n2c5c31)C(=O)NC4 | 172
* CO[C@@H]1[C@H](NCCOCCOCCOCCNC(=O)CCC2=[N+]3C(=Cc4c(C)cc(C)n4[B-]3(F)F)C=C2)C[C@H]2O[C@]1(C)n1c3ccccc3c3c4c(c5c6ccccc6n2c5c31)C(=O)NC4 | 230

---

Measured Kd by item
# System name: Fibroblast growth factor receptor 4 (Homo sapiens, UniProt P22455)
# Sequence (P22455 whole entry, the tested form may be a part): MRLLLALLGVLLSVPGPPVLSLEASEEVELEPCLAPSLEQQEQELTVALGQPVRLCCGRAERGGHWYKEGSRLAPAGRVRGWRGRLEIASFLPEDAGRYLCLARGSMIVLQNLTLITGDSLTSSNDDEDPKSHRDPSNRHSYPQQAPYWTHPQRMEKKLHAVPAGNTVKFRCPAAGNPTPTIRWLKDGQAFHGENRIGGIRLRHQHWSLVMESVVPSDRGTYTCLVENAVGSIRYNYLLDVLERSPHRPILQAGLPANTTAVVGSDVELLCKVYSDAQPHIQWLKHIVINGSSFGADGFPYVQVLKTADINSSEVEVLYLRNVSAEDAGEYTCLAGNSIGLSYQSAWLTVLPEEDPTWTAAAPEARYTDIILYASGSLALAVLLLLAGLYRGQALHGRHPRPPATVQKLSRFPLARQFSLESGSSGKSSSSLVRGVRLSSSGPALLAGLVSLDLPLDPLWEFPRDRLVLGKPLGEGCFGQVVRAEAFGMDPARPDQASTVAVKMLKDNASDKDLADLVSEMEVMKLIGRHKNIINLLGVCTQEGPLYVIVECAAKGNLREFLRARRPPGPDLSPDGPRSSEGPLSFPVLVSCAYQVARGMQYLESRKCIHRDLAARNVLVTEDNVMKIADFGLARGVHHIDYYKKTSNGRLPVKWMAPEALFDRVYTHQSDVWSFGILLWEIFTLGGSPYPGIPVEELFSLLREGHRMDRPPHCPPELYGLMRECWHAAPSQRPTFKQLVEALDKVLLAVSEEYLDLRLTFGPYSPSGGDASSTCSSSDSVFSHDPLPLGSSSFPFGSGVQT
# Assay summary: Binding affinity to recombinant N-terminal His-FLAG-GST-tagged FGFR4 (unknown origin) (460 to 802 residues) expressed in baculovirus infected Sf9 insect cells incubated for 1 hr by TR-FRET assay
Reported metric: Kd (nM)

- CO[C@@H]1[C@H](NCCOCCOCCOCCNC(=O)CCC2=[N+]3C(=Cc4c(C)cc(C)n4[B-]3(F)F)C=C2)C[C@H]2O[C@]1(C)n1c3ccccc3c3c4c(c5c6ccccc6n2c5c31)C(=O)NC4: 718
- CO[C@@H]1[C@H](N(C)CCOCCOCCOCCNC(=O)CCC2=[N+]3C(=Cc4c(C)cc(C)n4[B-]3(F)F)C=C2)C[C@H]2O[C@]1(C)n1c3ccccc3c3c4c(c5c6ccccc6n2c5c31)C(=O)NC4: 1490

---

Measured Kd by item
# System name: Calcium/calmodulin-dependent protein kinase kinase 1 (Homo sapiens)
# Sequence (Q8N5S9 whole entry): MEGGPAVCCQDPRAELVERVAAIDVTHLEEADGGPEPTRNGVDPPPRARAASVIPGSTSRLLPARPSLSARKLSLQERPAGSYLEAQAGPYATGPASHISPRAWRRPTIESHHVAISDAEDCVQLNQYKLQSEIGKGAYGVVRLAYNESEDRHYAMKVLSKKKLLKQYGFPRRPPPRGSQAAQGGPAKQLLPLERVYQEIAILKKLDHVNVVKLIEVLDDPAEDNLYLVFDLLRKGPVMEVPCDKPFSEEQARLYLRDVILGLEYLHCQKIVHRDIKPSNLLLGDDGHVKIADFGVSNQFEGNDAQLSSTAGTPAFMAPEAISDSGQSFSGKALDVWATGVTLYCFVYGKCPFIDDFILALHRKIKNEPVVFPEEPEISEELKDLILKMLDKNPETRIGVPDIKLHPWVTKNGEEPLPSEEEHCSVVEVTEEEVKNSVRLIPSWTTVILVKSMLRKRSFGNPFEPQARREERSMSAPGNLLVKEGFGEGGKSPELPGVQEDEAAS
# Assay summary: Binding affinity to recombinant full-length N-terminal His-FLAG-GST-tagged CAMKK1 (unknown origin) expressed in baculovirus infected Sf9 insect cells incubated for 1 hr in presence of calmodulin by TR-FRET assay
Reported metric: Kd (µM)

- CO[C@@H]1[C@H](NCCOCCOCCOCCNC(=O)CCC2=[N+]3C(=Cc4c(C)cc(C)n4[B-]3(F)F)C=C2)C[C@H]2O[C@]1(C)n1c3ccccc3c3c4c(c5c6ccccc6n2c5c31)C(=O)NC4: 0.011
- CO[C@@H]1[C@H](N(C)CCOCCOCCOCCNC(=O)CCC2=[N+]3C(=Cc4c(C)cc(C)n4[B-]3(F)F)C=C2)C[C@H]2O[C@]1(C)n1c3ccccc3c3c4c(c5c6ccccc6n2c5c31)C(=O)NC4: 0.014

---

# System name: Tyrosine-protein kinase Yes (Homo sapiens)
# Sequence (P07947 whole entry): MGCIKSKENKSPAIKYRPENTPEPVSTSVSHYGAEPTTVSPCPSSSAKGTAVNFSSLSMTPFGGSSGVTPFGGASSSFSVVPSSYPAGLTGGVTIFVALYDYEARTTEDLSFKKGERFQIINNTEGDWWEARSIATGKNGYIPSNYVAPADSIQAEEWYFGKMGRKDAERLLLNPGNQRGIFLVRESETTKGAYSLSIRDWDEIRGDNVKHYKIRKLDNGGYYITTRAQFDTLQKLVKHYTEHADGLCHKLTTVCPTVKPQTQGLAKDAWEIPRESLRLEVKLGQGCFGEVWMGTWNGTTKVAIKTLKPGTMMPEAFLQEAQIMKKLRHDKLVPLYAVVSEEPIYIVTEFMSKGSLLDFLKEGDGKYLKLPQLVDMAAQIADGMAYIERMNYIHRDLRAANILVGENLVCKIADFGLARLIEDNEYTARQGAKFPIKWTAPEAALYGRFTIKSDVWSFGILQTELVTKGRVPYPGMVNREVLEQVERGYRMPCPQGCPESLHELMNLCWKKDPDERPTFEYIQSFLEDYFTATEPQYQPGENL
# Assay summary: Binding affinity to recombinant full-length N-terminal His-FLAG-GST-tagged YES1 (unknown origin) expressed in baculovirus infected Sf9 insect cells incubated for 1 hr by TR-FRET assay
Reported metric: Kd (nM)

- CO[C@@H]1[C@H](NCCOCCOCCOCCNC(=O)CCC2=[N+]3C(=Cc4c(C)cc(C)n4[B-]3(F)F)C=C2)C[C@H]2O[C@]1(C)n1c3ccccc3c3c4c(c5c6ccccc6n2c5c31)C(=O)NC4: 601

---

# System name: Mitogen-activated protein kinase kinase kinase 7 (Homo sapiens, UniProt O43318)
# Sequence (O43318 whole entry): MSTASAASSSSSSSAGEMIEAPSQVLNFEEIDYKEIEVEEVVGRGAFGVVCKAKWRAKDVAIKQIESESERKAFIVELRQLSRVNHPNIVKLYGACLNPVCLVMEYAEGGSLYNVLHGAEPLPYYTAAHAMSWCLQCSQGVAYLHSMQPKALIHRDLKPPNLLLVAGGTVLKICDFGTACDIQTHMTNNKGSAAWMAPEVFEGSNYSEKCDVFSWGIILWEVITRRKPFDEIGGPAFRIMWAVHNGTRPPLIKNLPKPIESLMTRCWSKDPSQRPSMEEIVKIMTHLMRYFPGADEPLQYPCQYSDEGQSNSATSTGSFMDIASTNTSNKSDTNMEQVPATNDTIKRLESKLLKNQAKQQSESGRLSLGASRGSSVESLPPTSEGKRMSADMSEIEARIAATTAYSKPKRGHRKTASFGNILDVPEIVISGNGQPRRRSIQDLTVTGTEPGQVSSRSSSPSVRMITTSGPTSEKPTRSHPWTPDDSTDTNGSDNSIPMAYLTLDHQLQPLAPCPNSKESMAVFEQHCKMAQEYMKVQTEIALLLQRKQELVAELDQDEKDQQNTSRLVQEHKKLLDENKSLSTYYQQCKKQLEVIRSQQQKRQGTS
# Assay summary: Binding affinity to recombinant full-length N-terminal His-FLAG-tagged MAP3K7 (unknown origin) expressed in baculovirus infected Sf9 insect cells incubated for 1 hr by TR-FRET assay
pKd: −log10 of the molar value.
Reported metric: pKd

* CO[C@@H]1[C@H](NCCOCCOCCOCCNC(=O)CCC2=[N+]3C(=Cc4c(C)cc(C)n4[B-]3(F)F)C=C2)C[C@H]2O[C@]1(C)n1c3ccccc3c3c4c(c5c6ccccc6n2c5c31)C(=O)NC4 | 7.36
* CO[C@@H]1[C@H](N(C)CCOCCOCCOCCNC(=O)CCC2=[N+]3C(=Cc4c(C)cc(C)n4[B-]3(F)F)C=C2)C[C@H]2O[C@]1(C)n1c3ccccc3c3c4c(c5c6ccccc6n2c5c31)C(=O)NC4 | 7.22

---

# System name: Serine/threonine-protein kinase pim-2 (Homo sapiens)
# Assay summary: Binding affinity to recombinant human full-length N-terminal GST-tagged PIM2 expressed in baculovirus expression system using S6K2 peptide as substrate incubated for 1 hr by TR-FRET assay
pKd: −log10 of the molar value.
Reported metric: pKd

* CO[C@@H]1[C@H](NCCOCCOCCOCCNC(=O)CCC2=[N+]3C(=Cc4c(C)cc(C)n4[B-]3(F)F)C=C2)C[C@H]2O[C@]1(C)n1c3ccccc3c3c4c(c5c6ccccc6n2c5c31)C(=O)NC4 | 7.82

---

# System name: Tyrosine-protein kinase Tec (Homo sapiens, UniProt P42680)
# Sequence (P42680 whole entry): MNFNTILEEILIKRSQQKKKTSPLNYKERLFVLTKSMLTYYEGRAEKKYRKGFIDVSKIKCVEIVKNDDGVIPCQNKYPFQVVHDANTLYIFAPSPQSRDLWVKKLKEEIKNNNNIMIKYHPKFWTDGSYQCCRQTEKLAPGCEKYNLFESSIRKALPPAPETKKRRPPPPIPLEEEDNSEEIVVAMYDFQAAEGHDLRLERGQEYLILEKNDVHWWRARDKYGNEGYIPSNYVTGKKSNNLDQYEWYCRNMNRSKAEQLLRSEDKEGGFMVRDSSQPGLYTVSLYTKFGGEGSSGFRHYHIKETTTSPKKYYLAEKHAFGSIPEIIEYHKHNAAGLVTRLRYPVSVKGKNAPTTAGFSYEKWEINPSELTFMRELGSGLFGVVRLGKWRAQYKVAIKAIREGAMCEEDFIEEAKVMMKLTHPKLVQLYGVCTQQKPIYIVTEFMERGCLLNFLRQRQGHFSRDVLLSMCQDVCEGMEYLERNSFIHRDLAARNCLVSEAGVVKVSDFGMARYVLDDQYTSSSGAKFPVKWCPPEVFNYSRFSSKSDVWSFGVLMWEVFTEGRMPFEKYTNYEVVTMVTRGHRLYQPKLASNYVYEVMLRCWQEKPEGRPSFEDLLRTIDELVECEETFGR
# Assay summary: Binding affinity to recombinant human N-terminal GST-tagged TEC (359 to 631 residues) expressed in baculovirus expression system using Srctide as substrate incubated for 1 hr by TR-FRET assay
Reported metric: Kd

• CO[C@@H]1[C@H](NCCOCCOCCOCCNC(=O)CCC2=[N+]3C(=Cc4c(C)cc(C)n4[B-]3(F)F)C=C2)C[C@H]2O[C@]1(C)n1c3ccccc3c3c4c(c5c6ccccc6n2c5c31)C(=O)NC4 = 1.06 µM
• CO[C@@H]1[C@H](N(C)CCOCCOCCOCCNC(=O)CCC2=[N+]3C(=Cc4c(C)cc(C)n4[B-]3(F)F)C=C2)C[C@H]2O[C@]1(C)n1c3ccccc3c3c4c(c5c6ccccc6n2c5c31)C(=O)NC4 = 1.46 µM

---

# System name: RAC-gamma serine/threonine-protein kinase (Homo sapiens, UniProt Q9Y243)
# Assay summary: Binding affinity to recombinant full-length N-terminal His-FLAG-GST-tagged AKT3 (unknown origin) (108 to 479 residues) expressed in baculovirus infected Sf9 insect cells incubated for 1 hr by TR-FRET assay
Reported metric: Kd (nM)

* CO[C@@H]1[C@H](N(C)CCOCCOCCOCCNC(=O)CCC2=[N+]3C(=Cc4c(C)cc(C)n4[B-]3(F)F)C=C2)C[C@H]2O[C@]1(C)n1c3ccccc3c3c4c(c5c6ccccc6n2c5c31)C(=O)NC4 | 537
* CO[C@@H]1[C@H](NCCOCCOCCOCCNC(=O)CCC2=[N+]3C(=Cc4c(C)cc(C)n4[B-]3(F)F)C=C2)C[C@H]2O[C@]1(C)n1c3ccccc3c3c4c(c5c6ccccc6n2c5c31)C(=O)NC4 | 749

---

# System name: TRAF2 and NCK-interacting protein kinase (Homo sapiens, UniProt Q9UKE5)
# Assay summary: Binding affinity to recombinant full-length N-terminal His-FLAG-GST-tagged TNIK (unknown origin) (1 to 314 residues) expressed in baculovirus infected Sf9 insect cells incubated for 1 hr by TR-FRET assay
pKd: −log10 of the molar value.
Measured pKd by item
Reported metric: pKd

* CO[C@@H]1[C@H](N(C)CCOCCOCCOCCNC(=O)CCC2=[N+]3C(=Cc4c(C)cc(C)n4[B-]3(F)F)C=C2)C[C@H]2O[C@]1(C)n1c3ccccc3c3c4c(c5c6ccccc6n2c5c31)C(=O)NC4 | 7.01
* CO[C@@H]1[C@H](NCCOCCOCCOCCNC(=O)CCC2=[N+]3C(=Cc4c(C)cc(C)n4[B-]3(F)F)C=C2)C[C@H]2O[C@]1(C)n1c3ccccc3c3c4c(c5c6ccccc6n2c5c31)C(=O)NC4 | 6.92

---

# System name: Mitogen-activated protein kinase kinase kinase kinase 2 (Homo sapiens, UniProt Q12851)
# Sequence (Q12851 whole entry): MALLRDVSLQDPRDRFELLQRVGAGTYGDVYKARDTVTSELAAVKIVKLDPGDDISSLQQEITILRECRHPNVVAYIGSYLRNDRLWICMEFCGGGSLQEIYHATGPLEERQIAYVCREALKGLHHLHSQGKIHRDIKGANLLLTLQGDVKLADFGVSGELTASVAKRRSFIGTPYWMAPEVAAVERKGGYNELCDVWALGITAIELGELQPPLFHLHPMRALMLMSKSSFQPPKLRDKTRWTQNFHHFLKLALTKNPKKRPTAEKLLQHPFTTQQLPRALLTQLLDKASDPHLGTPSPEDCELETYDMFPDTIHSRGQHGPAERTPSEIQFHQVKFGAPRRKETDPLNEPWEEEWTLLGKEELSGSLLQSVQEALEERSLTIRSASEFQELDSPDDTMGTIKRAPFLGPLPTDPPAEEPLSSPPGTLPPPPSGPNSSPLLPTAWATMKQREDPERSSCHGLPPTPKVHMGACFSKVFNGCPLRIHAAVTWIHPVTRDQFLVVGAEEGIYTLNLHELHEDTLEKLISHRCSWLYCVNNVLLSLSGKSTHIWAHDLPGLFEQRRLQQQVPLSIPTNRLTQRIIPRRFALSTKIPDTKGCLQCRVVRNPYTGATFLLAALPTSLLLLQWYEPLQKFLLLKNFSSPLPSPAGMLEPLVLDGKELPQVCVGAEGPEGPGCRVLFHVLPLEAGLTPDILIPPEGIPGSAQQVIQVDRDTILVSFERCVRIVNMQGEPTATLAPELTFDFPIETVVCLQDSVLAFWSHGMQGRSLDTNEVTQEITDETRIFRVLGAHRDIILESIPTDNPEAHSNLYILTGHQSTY
# Assay summary: Binding affinity to recombinant full-length N-terminal His-FLAG-GST-tagged MAP4K2 (unknown origin) expressed in baculovirus infected Sf9 insect cells incubated for 1 hr by TR-FRET assay
pKd: −log10 of the molar value.
Reported metric: pKd

• CO[C@@H]1[C@H](N(C)CCOCCOCCOCCNC(=O)CCC2=[N+]3C(=Cc4c(C)cc(C)n4[B-]3(F)F)C=C2)C[C@H]2O[C@]1(C)n1c3ccccc3c3c4c(c5c6ccccc6n2c5c31)C(=O)NC4 = 8.15
• CO[C@@H]1[C@H](NCCOCCOCCOCCNC(=O)CCC2=[N+]3C(=Cc4c(C)cc(C)n4[B-]3(F)F)C=C2)C[C@H]2O[C@]1(C)n1c3ccccc3c3c4c(c5c6ccccc6n2c5c31)C(=O)NC4 = 8.22

The reported measurements were obtained from ChEMBL document CHEMBL4321812.
